- Target Under Test: Na^+,K^+ -ATPase
- Format: binding
- Test Parameters: ^3 H-ouabain displacement, purified Na^+,K^+ -ATPase receptor
Quantity Measured: Binding ^3 H-Ouab. Displacement log IC50
Answer using only a numeral; do not append any unit.

Entry C[C@]12CC[C@H](OCCCN)C[C@H]1CC[C@@H]1[C@@H]2CC[C@]2(C)[C@@](O)(c3ccccc3)CC[C@]12O [Comp. I-ag] , Binding ^3 H-Ouab. Displacement log IC50 reported as 5.9

====

- Target Under Test: Na^+,K^+ -ATPase
- Type: binding
- Test Parameters: ^3 H-ouabain displacement, purified Na^+,K^+ -ATPase receptor
List of Binding ^3 H-Ouab. Displacement log IC50 values.

Example molecules with recorded Binding ^3 H-Ouab. Displacement log IC50:
>  <Smiles Notation>
CCN(CC)CCO[C@H]1CC[C@@]2(C)[C@H](CC[C@@H]3[C@@H]2CC[C@]2(C)[C@@](O)(c4ccc(OC)cc4)CC[C@]32O)C1

>  <Target Under Test>
Na^+,K^+ -ATPase

>  <Measured>
6.0

$$$$
>  <Smiles Notation>
CNCCO[C@H]1CC[C@@]2(C)[C@H](CC[C@@H]3[C@@H]2CC[C@]2(C)[C@@](O)(c4ccccc4)CC[C@]32O)C1

>  <Target Under Test>
Na^+,K^+ -ATPase

>  <Measured>
5.9

$$$$

Query `C[C@]12CC[C@H](O)C[C@H]1CC[C@@H]1[C@@H]2CC[C@]2(C)[C@@](O)(c3cccnc3)CC[C@]12O` yields Binding ^3 H-Ouab. Displacement log IC50 of 5.4

====

compounds and their reported SBP (systolic blood pressure)
- Test system: spontaneous hypertensive rats of the Milan (MHS)
- Procedure Details: systolic blood pressure and heart rate in spontaneous hypertensive rats (MHS), indirect tail-cuff
- Assay type: in vivo, rat
- Test Parameters: MHS rats, n = 7, 20 mg/Kg/os daily for ten days in METHOCEL 0.5% w/v; controls 172 +/- 2.0

>  <Compound>
C[C@]12CC[C@H](O)C[C@H]1CC[C@@H]1[C@@H]2CC[C@]2(C)[C@@](O)(c3cccnc3)CC[C@]12O

>  <Measured>
154 +/- 3.0 mm Hg

$$$$
>  <Compound>
COc1ccc([C@@]2(O)CC[C@]3(O)[C@@H]4CC[C@@H]5C[C@@H](O)CC[C@]5(C)[C@H]4CC[C@]23C)cc1

>  <Measured>
156 +/- 4.1 mm Hg

$$$$
>  <Compound>
C[C@]12CC[C@H](OCCCN)C[C@H]1CC[C@@H]1[C@@H]2CC[C@]2(C)[C@@](O)(c3ccccc3)CC[C@]12O

>  <Measured>
157 +/- 4.2 mm Hg

$$$$
>  <Compound>
C[C@]12CC[C@H](O)C[C@H]1CC[C@@H]1[C@@H]2CC[C@]2(C)[C@@](O)(C3=CC(=O)OC3)CC[C@]12O [Ref. comp., reference compound]

>  <Measured>
174 +/- 2.1 mm Hg

$$$$

Briefly, SBP (systolic blood pressure) measured for `C[C@]12CC[C@H](O)C[C@H]1CC[C@@H]1[C@@H]2CC[C@]2(C)[C@@](O)(c3ccccc3)CC[C@]12O` : 160 +/- 4.5 mm Hg

====

- Target Under Test: Na^+,K^+ -ATPase
- Assay type: binding
- Test Parameters: ^3 H-ouabain displacement, purified Na^+,K^+ -ATPase receptor
Some compounds, each annotated with its measured Binding ^3 H-Ouab. Displacement log IC50.
A bare number is all that is needed in reply.

# annotated cases, reported Binding ^3 H-Ouab. Displacement log IC50 shown
>  <Smiles Notation>
CN(C)CCCO[C@H]1CC[C@@]2(C)[C@H](CC[C@@H]3[C@@H]2CC[C@]2(C)[C@@](O)(c4ccccc4)CC[C@]32O)C1

>  <Target Under Test>
Na^+,K^+ -ATPase

>  <Measured>
5.9

$$$$
>  <Smiles Notation>
COc1ccc([C@@]2(O)CC[C@]3(O)[C@@H]4CC[C@@H]5C[C@@H](O)CC[C@]5(C)[C@H]4CC[C@]23C)cc1

>  <Target Under Test>
Na^+,K^+ -ATPase

>  <Measured>
5.6

$$$$
>  <Smiles Notation>
C[C@]12CCC(=NNC(=N)N)C[C@H]1CC[C@@H]1[C@@H]2CC[C@]2(C)[C@@](O)(c3ccccc3)CC[C@]12O

>  <Target Under Test>
Na^+,K^+ -ATPase

>  <Measured>
5.8

$$$$
>  <Smiles Notation>
Cc1ncc([C@@]2(O)CC[C@]3(O)[C@@H]4CC[C@@H]5C[C@@H](O)CC[C@]5(C)[C@H]4CC[C@]23C)n1C

>  <Target Under Test>
Na^+,K^+ -ATPase

>  <Measured>
5.4

$$$$
>  <Smiles Notation>
C[C@]12CC[C@H](O)C[C@H]1CC[C@@H]1[C@@H]2CC[C@]2(C)[C@@](O)(c3ccccc3)CC[C@]12O

>  <Target Under Test>
Na^+,K^+ -ATPase

>  <Measured>
5.4

$$$$

Here is another compound to look at.
Reported Binding ^3 H-Ouab. Displacement log IC50 of `C[C@]12CC[C@H](O)C[C@H]1CC[C@@H]1[C@@H]2CC[C@]2(C)[C@@](O)(c3ccc(O)cc3)CC[C@]12O` : 5.6

====

- Target Under Test: Na^+,K^+ -ATPase
- Type: biochemical
- Test Parameters: hydrolysis of ^32 P-ATP, purified Na^+,K^+ -ATPase
- Source text: To test the affinity for the receptor site of the Na^+,K^+ -ATPase and the inhibitory activity on the enzyme, the following tests were used: b) inhibition of the activity of the purified Na^+,K^+ -ATPase measured as % of hydrolysis of ^32 P-ATP in presence and in absence of the tested compound (Doucet A. et al., Am.
Quantity Measured: Inhibitory Activity log IC50
Please reply with the number alone, leaving off any unit.

Some compounds with recorded Inhibitory Activity log IC50:
>  <Compound>
C[C@]12CC[C@H](SCCCN)C[C@H]1CC[C@@H]1[C@@H]2CC[C@]2(C)[C@@](O)(c3ccccc3)CC[C@]12O [Comp. I-bj]

>  <Target Under Test>
Na^+,K^+ -ATPase

>  <Inhibitory Activity log IC50>
4.6

$$$$
>  <Compound>
C[C@]12CC[C@H](O)C[C@H]1CC[C@@H]1[C@@H]2CC[C@]2(C)[C@@](O)(c3ccccc3)CC[C@]12O [Comp. I-ac]

>  <Target Under Test>
Na^+,K^+ -ATPase

>  <Inhibitory Activity log IC50>
4.1

$$$$
>  <Compound>
C[C@]12CC[C@H](O)C[C@H]1CC[C@@H]1[C@@H]2CC[C@]2(C)[C@@](O)(c3cccnc3)CC[C@]12O [Comp. 1-bb]

>  <Target Under Test>
Na^+,K^+ -ATPase

>  <Inhibitory Activity log IC50>
4.3

$$$$
>  <Compound>
C[C@]12CC[C@H](OCC(N)CN)C[C@H]1CC[C@@H]1[C@@H]2CC[C@]2(C)[C@@](O)(c3ccccc3)CC[C@]12O (stereo partly shown) [Comp. I-ap]

>  <Target Under Test>
Na^+,K^+ -ATPase

>  <Inhibitory Activity log IC50>
4.6

$$$$
>  <Compound>
CN(C)c1ccc([C@@]2(O)CC[C@]3(O)[C@@H]4CC[C@@H]5C[C@@H](O)CC[C@]5(C)[C@H]4CC[C@]23C)cc1 [Comp. I-bf]

>  <Target Under Test>
Na^+,K^+ -ATPase

>  <Inhibitory Activity log IC50>
4.6

$$$$

The compound listed as C[C@]12CC[C@H](O)C[C@H]1CC[C@@H]1[C@@H]2CC[C@]2(C)[C@@](O)(c3ccc(O)cc3)CC[C@]12O [Comp. I-ay] shows Inhibitory Activity log IC50 equal to 4.5

The compound listed as C[C@]12CC[C@H](OCC(O)CO)C[C@H]1CC[C@@H]1[C@@H]2CC[C@]2(C)[C@@](O)(c3ccccc3)CC[C@]12O (stereo partly shown) [Comp. I-ao] has a reported Inhibitory Activity log IC50 of 4.2

====

- Target Under Test: Na^+,K^+ -ATPase
- Format: binding
- Test Parameters: ^3 H-ouabain displacement, purified Na^+,K^+ -ATPase receptor
Binding ^3 H-Ouab. Displacement log IC50 listing for selected molecules.

>  <Molecule>
C[C@]12CC[C@H](SCCCN)C[C@H]1CC[C@@H]1[C@@H]2CC[C@]2(C)[C@@](O)(c3ccccc3)CC[C@]12O [Comp. I-bj]

>  <Binding ^3 H-Ouab. Displacement log IC50>
5.7

$$$$
>  <Molecule>
C[C@]12CC[C@H](OCC(O)CO)C[C@H]1CC[C@@H]1[C@@H]2CC[C@]2(C)[C@@](O)(c3ccccc3)CC[C@]12O (some centres unmarked) [Comp. I-ao]

>  <Binding ^3 H-Ouab. Displacement log IC50>
5.5

$$$$

The reported value for C[C@]12CC[C@H](O)C[C@H]1CC[C@@H]1[C@@H]2CC[C@]2(C)[C@@](O)(C3=CC(=O)OC3)CC[C@]12O [Ref. comp., reference compound] in terms of Binding ^3 H-Ouab. Displacement log IC50 is 5.9

Sure, the documented Binding ^3 H-Ouab. Displacement log IC50 for C[C@]12CC[C@H](OCC(N)CN)C[C@H]1CC[C@@H]1[C@@H]2CC[C@]2(C)[C@@](O)(c3ccccc3)CC[C@]12O (some centres unmarked) [Comp. I-ap] is 5.8

Kindly note the recorded Binding ^3 H-Ouab. Displacement log IC50 for C[C@]12CC[C@H](O)C[C@H]1CC[C@@H]1[C@@H]2CC[C@]2(C)[C@@](O)(c3ccsc3)CC[C@]12O [Comp. 1-ba] , which is 5.7
